experiment description: PK study in SD rats
Format: in vivo
measurement context: male, Sprague-Dawley, plasma, iv; SD rat, 1.0 mg/kg i.v.
Method: All animal treatments were conducted using an approved protocol of Fudan University (2020CHEM-JS-009). A12 was dissolved in a mixture of DMSO/Solutol HS 15/normal saline (10/10/80, v/v/v). Six Sprague–Dawley rats (male, 180−220 g) were assigned into two groups (n = 3) randomly to receive i.v. (1 mg/kg) or p.o. administration (10 mg/kg) of A12. At the time points of 5, 15, 30 min, 1, 2, 4, 6, 8, 10, 12, and 24 h, blood samples were collected and centrifuged (4 °C, 4500 rpm, 10 min) to obtain plasma. […]
endpoint name: AUC(0-inf) (ng·h/mL)

1. Cc1cc(-c2ccc(C#N)cc2)cc(C)c1Nc1nc(Nc2ccc(C#N)cc2)ncc1F ... 3060

====

experiment description: PK study in SD rats
Assay type: in vivo
measurement context: male, Sprague-Dawley, plasma, iv; SD rat, 1.0 mg/kg i.v.; mean ± SD, n = 3
Procedure: All animal treatments were conducted using an approved protocol of Fudan University (2020CHEM-JS-009). A12 was dissolved in a mixture of DMSO/Solutol HS 15/normal saline (10/10/80, v/v/v). Six Sprague–Dawley rats (male, 180−220 g) were assigned into two groups (n = 3) randomly to receive i.v. (1 mg/kg) or p.o. administration (10 mg/kg) of A12. At the time points of 5, 15, 30 min, 1, 2, 4, 6, 8, 10, 12, and 24 h, blood samples were collected and centrifuged (4 °C, 4500 rpm, 10 min) to obtain plasma. […]
endpoint name: half-life (h)

1) Cc1cc(-c2ccc(C#N)cc2)cc(C)c1Nc1nc(Nc2ccc(C#N)cc2)ncc1F ... 5.53

====

System: MT-4 cells
experiment description: in vitro
measurement context: human
From the text: Inspired by our previous research on heteroaromatic-biphenyl-DAPYs[15], the 4-cyanophenyl group on the biphenyl moiety was replaced with a privileged 4-pyridyl group for further evaluation.
The entries below are paired with their reported CC50.
endpoint name: CC50

1. N#Cc1ccc(Nc2ncc(F)c(Oc3ccc(-c4ccc(C#N)cc4)cc3F)n2)cc1 ... > 47 µM
2. COc1cc(-c2ccncc2)ccc1Oc1nc(Nc2ccc(C#N)cc2)ncc1F ... > 48 µM
3. COc1cc(-c2ccc(C#N)cc2)ccc1Oc1nc(Nc2ccc(C#N)cc2)ncc1F ... > 46 µM
4. N#Cc1ccc(Nc2ncc(F)c(Nc3ccc(-c4ccc(C#N)cc4)cc3F)n2)cc1 ... > 47 µM

====

experiment description: PK study in SD rats
Assay type: in vivo
measurement context: male, Sprague-Dawley, plasma, po; SD rat, 10.0 mg/kg p.o.
Procedure: All animal treatments were conducted using an approved protocol of Fudan University (2020CHEM-JS-009). A12 was dissolved in a mixture of DMSO/Solutol HS 15/normal saline (10/10/80, v/v/v). Six Sprague–Dawley rats (male, 180−220 g) were assigned into two groups (n = 3) randomly to receive i.v. (1 mg/kg) or p.o. administration (10 mg/kg) of A12. At the time points of 5, 15, 30 min, 1, 2, 4, 6, 8, 10, 12, and 24 h, blood samples were collected and centrifuged (4 °C, 4500 rpm, 10 min) to obtain plasma. […]
endpoint name: Cmax (ng/mL)

1) Cc1cc(-c2ccc(C#N)cc2)cc(C)c1Nc1nc(Nc2ccc(C#N)cc2)ncc1F ... 1390
